Hey, just so you know, these numbers are from patent US6949566B2.

Target: MMP-2 (Homo sapiens)
Construct: purchased Calbiochem-Novabiochem International, Inc
Sequence (P08253 110-660): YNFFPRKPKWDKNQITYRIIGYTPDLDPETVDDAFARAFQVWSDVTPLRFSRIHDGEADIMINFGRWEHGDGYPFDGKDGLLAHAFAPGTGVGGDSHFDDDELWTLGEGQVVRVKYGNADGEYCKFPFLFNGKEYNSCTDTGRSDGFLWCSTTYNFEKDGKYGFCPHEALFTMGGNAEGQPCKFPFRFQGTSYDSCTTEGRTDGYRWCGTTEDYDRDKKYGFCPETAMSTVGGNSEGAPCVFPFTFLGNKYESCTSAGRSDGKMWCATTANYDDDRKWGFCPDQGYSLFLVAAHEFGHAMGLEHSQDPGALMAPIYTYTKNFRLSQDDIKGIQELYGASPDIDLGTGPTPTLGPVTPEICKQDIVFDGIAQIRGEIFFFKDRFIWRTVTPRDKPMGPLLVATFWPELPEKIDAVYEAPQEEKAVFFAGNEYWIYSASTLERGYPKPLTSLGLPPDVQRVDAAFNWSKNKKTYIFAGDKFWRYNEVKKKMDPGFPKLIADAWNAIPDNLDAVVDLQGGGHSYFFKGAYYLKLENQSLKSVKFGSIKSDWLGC
Experiment: Assay for inhibitory activities on MMPs (fluorogenic peptide substrate), MMP-2
Format: biochemical
Conditions: purchased MMP-2; substrate MOCAc-Pro-Leu-Gly-Leu-A2Pr(DNP)-Ala-Arg-NH2
Assign IC50 to each entry below.
The response must be a number in nM with no trailing unit.

[ask] Lab note: need IC50 for "O=C(O)[C@@H](Cc1ccccc1)NS(=O)(=O)c1ccc(-c2ncc(-c3ccc4ccccc4c3)o2)cc1" on MMP-2 (Homo sapiens), anyone have it?
[reply] 9.31

[ask] Lab note: need IC50 for "CC(C)[C@@H](NS(=O)(=O)c1ccc(-c2ncc(-c3ccc(Br)cc3)o2)cc1)C(=O)O" on MMP-2 (Homo sapiens), anyone have it?
[reply] 6.08

[ask] Lab note: need IC50 for "C[C@@H](NS(=O)(=O)c1ccc(-c2ncc(-c3ccc(F)cc3)s2)cc1)C(=O)O" on MMP-2 (Homo sapiens), anyone have it?
[reply] 0.901

[ask] Lab note: need IC50 for "CC(C)[C@H](NS(=O)(=O)c1ccc(-c2ncc(-c3ccc(Cl)cc3)o2)cc1)C(=O)O" on MMP-2 (Homo sapiens), anyone have it?
[reply] 670

[ask] Lab note: need IC50 for "CC(C)[C@H](NS(=O)(=O)c1ccc(-c2ncc(-c3ccccc3)o2)cc1)C(=O)O" on MMP-2 (Homo sapiens), anyone have it?
[reply] 7.84

[ask] Lab note: need IC50 for "O=C(O)[C@H](Cc1ccccc1)NS(=O)(=O)c1ccc(-c2ncc(-c3ccccc3)s2)cc1" on MMP-2 (Homo sapiens), anyone have it?
[reply] 1.44

[ask] Lab note: need IC50 for "COc1ccc(-c2cnc(-c3ccc(S(=O)(=O)N[C@H](C)C(=O)O)cc3)o2)cc1" on MMP-2 (Homo sapiens), anyone have it?
[reply] 3.37

[ask] Lab note: need IC50 for "O=C(O)[C@H](Cc1ccccc1)NS(=O)(=O)c1ccc(-c2ncc(-c3ccc(Cl)cc3)o2)cc1" on MMP-2 (Homo sapiens), anyone have it?
[reply] 265

[ask] Lab note: need IC50 for "CC(C)[C@@H](NS(=O)(=O)c1ccc(-c2ncc(-c3ccc(Br)cc3)s2)cc1)C(=O)O" on MMP-2 (Homo sapiens), anyone have it?
[reply] 0.373

[ask] Lab note: need IC50 for "COc1ccc(-c2cnc(-c3ccc(S(=O)(=O)N[C@H](CC(C)C)C(=O)O)cc3)s2)cc1" on MMP-2 (Homo sapiens), anyone have it?
[reply] 1.63

[ask] Lab note: need IC50 for "O=C(O)[C@@H](Cc1ccccc1)NS(=O)(=O)c1ccc(-c2ncc(-c3ccccc3)s2)cc1" on MMP-2 (Homo sapiens), anyone have it?
[reply] 1.08

[ask] Lab note: need IC50 for "CC(C)C[C@@H](NS(=O)(=O)c1ccc(-c2ncc(-c3ccc(Cl)cc3)o2)cc1)C(=O)O" on MMP-2 (Homo sapiens), anyone have it?
[reply] 44.4

[ask] Lab note: need IC50 for "COc1ccc(-c2cnc(-c3ccc(S(=O)(=O)N[C@@H](C)C(=O)O)cc3)o2)cc1" on MMP-2 (Homo sapiens), anyone have it?
[reply] 287

[ask] Lab note: need IC50 for "C[C@@H](NS(=O)(=O)c1ccc(-c2ncc(-c3ccc4ccccc4c3)s2)cc1)C(=O)O" on MMP-2 (Homo sapiens), anyone have it?
[reply] 2.41

[ask] Lab note: need IC50 for "COc1ccc(-c2cnc(-c3ccc(S(=O)(=O)N[C@@H](C)C(=O)O)cc3)s2)cc1" on MMP-2 (Homo sapiens), anyone have it?
[reply] 6.3

[ask] Lab note: need IC50 for "CC(C)C[C@@H](NS(=O)(=O)c1ccc(-c2ncc(-c3ccc(Cl)cc3)s2)cc1)C(=O)O" on MMP-2 (Homo sapiens), anyone have it?
[reply] 3.57

[ask] Lab note: need IC50 for "CSCC[C@@H](NS(=O)(=O)c1ccc(-c2ncc(-c3ccccc3)s2)cc1)C(=O)O" on MMP-2 (Homo sapiens), anyone have it?
[reply] 2.15

[ask] Lab note: need IC50 for "C[C@@H](NS(=O)(=O)c1ccc(-c2ncc(-c3ccc4ccccc4c3)o2)cc1)C(=O)O" on MMP-2 (Homo sapiens), anyone have it?
[reply] 7.16

[ask] Lab note: need IC50 for "CSCC[C@@H](NS(=O)(=O)c1ccc(-c2ncc(-c3ccc(Cl)cc3)o2)cc1)C(=O)O" on MMP-2 (Homo sapiens), anyone have it?
[reply] 16.3

[ask] Lab note: need IC50 for "C[C@@H](NS(=O)(=O)c1ccc(-c2ncc(-c3ccc(F)cc3)o2)cc1)C(=O)O" on MMP-2 (Homo sapiens), anyone have it?
[reply] 9.71

[ask] Lab note: need IC50 for "CC(C)[C@@H](NS(=O)(=O)c1ccc(-c2ncc(-c3ccc(F)cc3)s2)cc1)C(=O)O" on MMP-2 (Homo sapiens), anyone have it?
[reply] 1.38

[ask] Lab note: need IC50 for "CSCC[C@@H](NS(=O)(=O)c1ccc(-c2ncc(-c3ccc(Cl)cc3)s2)cc1)C(=O)O" on MMP-2 (Homo sapiens), anyone have it?
[reply] 1.17

[ask] Lab note: need IC50 for "CC(C)[C@H](NS(=O)(=O)c1ccc(-c2ncc(-c3ccc(F)cc3)o2)cc1)C(=O)O" on MMP-2 (Homo sapiens), anyone have it?
[reply] 514

[ask] Lab note: need IC50 for "C[C@@H](NS(=O)(=O)c1ccc(-c2ncc(-c3ccc(Br)cc3)o2)cc1)C(=O)O" on MMP-2 (Homo sapiens), anyone have it?
[reply] 5.46

[ask] Lab note: need IC50 for "CC(C)[C@H](NS(=O)(=O)c1ccc(-c2ncc(-c3ccc(F)cc3)s2)cc1)C(=O)O" on MMP-2 (Homo sapiens), anyone have it?
[reply] 8.05

[ask] Lab note: need IC50 for "CC(C)[C@@H](NS(=O)(=O)c1ccc(-c2ncc(-c3ccc(Cl)cc3)s2)cc1)C(=O)O" on MMP-2 (Homo sapiens), anyone have it?
[reply] 1.27

[ask] Lab note: need IC50 for "CC(C)[C@@H](NS(=O)(=O)c1ccc(-c2ncc(-c3ccc(F)cc3)o2)cc1)C(=O)O" on MMP-2 (Homo sapiens), anyone have it?
[reply] 12.2

[ask] Lab note: need IC50 for "COc1ccc(-c2cnc(-c3ccc(S(=O)(=O)N[C@H](CC(C)C)C(=O)O)cc3)o2)cc1" on MMP-2 (Homo sapiens), anyone have it?
[reply] 10.9

[ask] Lab note: need IC50 for "C[C@@H](NS(=O)(=O)c1ccc(-c2ncc(-c3ccc(Br)cc3)s2)cc1)C(=O)O" on MMP-2 (Homo sapiens), anyone have it?
[reply] 0.313

[ask] Lab note: need IC50 for "O=C(O)[C@@H](Cc1ccccc1)NS(=O)(=O)c1ccc(-c2ncc(-c3ccc(F)cc3)s2)cc1" on MMP-2 (Homo sapiens), anyone have it?
[reply] 2.09

====

molecular target: MMP-12 (Homo sapiens); construct: catalytic domain(^100Phe˜^263Gly) was amplified with RT-PCR; His-tag; enterokinase digestion-site; made in house; host or cells: Escherichia coli; experiment: Assay for inhibitory activities on MMPs (fluorogenic peptide substrate), MMP-12; type: biochemical; conditions: catalytic domain 100Phe-263Gly; substrate MOCAc-Pro-Leu-Gly-Leu-A2Pr(DNP)-Ala-Arg-NH2
Sequence (P39900 100-263): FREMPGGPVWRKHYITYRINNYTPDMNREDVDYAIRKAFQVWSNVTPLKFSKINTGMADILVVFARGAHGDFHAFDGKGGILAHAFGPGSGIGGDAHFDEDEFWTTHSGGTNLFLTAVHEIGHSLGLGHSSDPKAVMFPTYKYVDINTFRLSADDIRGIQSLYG
quantity.measured: IC50 (nM)
The response must be a number in nM with no trailing unit.

[ask] Reported IC50, compound "CC(C)[C@@H](NS(=O)(=O)c1ccc(-c2ncc(-c3ccc(Br)cc3)o2)cc1)C(=O)O" : ____
[reply] 1.55

[ask] Reported IC50, compound "O=C(O)[C@@H](Cc1ccccc1)NS(=O)(=O)c1ccc(-c2ncc(-c3ccc(F)cc3)o2)cc1" : ____
[reply] 7.71

[ask] Reported IC50, compound "O=C(O)CNS(=O)(=O)c1ccc(-c2ncc(-c3ccc(Cl)cc3)s2)cc1" : ____
[reply] 5.55

[ask] Reported IC50, compound "COc1ccc(-c2cnc(-c3ccc(S(=O)(=O)N[C@H](Cc4ccccc4)C(=O)O)cc3)s2)cc1" : ____
[reply] 3.55

[ask] Reported IC50, compound "O=C(O)[C@H](Cc1ccccc1)NS(=O)(=O)c1ccc(-c2ncc(-c3ccc(Cl)cc3)o2)cc1" : ____
[reply] 26.2

[ask] Reported IC50, compound "O=C(O)[C@H](Cc1ccccc1)NS(=O)(=O)c1ccc(-c2ncc(-c3ccccc3)s2)cc1" : ____
[reply] 3.69

[ask] Reported IC50, compound "COc1ccc(-c2cnc(-c3ccc(S(=O)(=O)N[C@@H](C(=O)O)C(C)C)cc3)s2)cc1" : ____
[reply] 0.37

[ask] Reported IC50, compound "CC(C)[C@@H](NS(=O)(=O)c1ccc(-c2ncc(-c3ccc(F)cc3)s2)cc1)C(=O)O" : ____
[reply] 1.96
